Measured values drawn from ChEMBL document CHEMBL1122720 for this set.

Tested on: Canis familiaris
Assay: Inhibition of apomorphine induced emesis in dogs following p.o. administration.
Assay type: functional
Settings: Canis lupus familiaris, po
readout_label: ED50 (mg/kg)
Report the value in mg/kg with no unit label.

Prompt line: Request - read-out ED50 | tested on Canis familiaris | compound CCN1CCCC1CNC(=O)c1cc(N(C)S(C)(=O)=O)ccc1OC (stereo unspecified)
Response line: 0.17

Prompt line: Observed ED50 on Canis familiaris for CCN1CCCC1CNC(=O)c1cc(N(C)S(N)(=O)=O)c(Cl)cc1OC (stereo unspecified) , please.
Response line: 1

Prompt line: Item: CCN1CCCC1CNC(=O)c1cc(NS(C)(=O)=O)c(Cl)cc1OC (stereo unspecified) Test system: Canis familiaris Read-out: ED50 Value: ?
Response line: 0.1

Prompt line: Tell me reported ED50 for CCN1CCCC1CNC(=O)c1cc(NS(N)(=O)=O)ccc1OC (stereo unspecified) , tested with Canis familiaris.
Response line: 10

Prompt line: Fill in the recorded ED50 for this compound, with Canis familiaris as test system: CCN1CCCC1CNC(=O)c1cc(N(C)S(N)(=O)=O)c(C)cc1OC (stereo unspecified)
Response line: 1

Prompt line: Query for Canis familiaris: what ED50 does the record show for CCN1CCCC1CNC(=O)c1cc(N(C)S(=O)(=O)N(C)C)ccc1OC (stereo unspecified) ?
Response line: 1

Prompt line: Form field - read-out: ED50; system: Canis familiaris; submitted item: CCN1CCCC1CNC(=O)c1cc(NS(C)(=O)=O)ccc1OC (stereo unspecified)
Response line: 2

Prompt line: Query ED50 on Canis familiaris for CCN1CCCC1CNC(=O)c1cc(NS(N)(=O)=O)c(Cl)cc1OC (stereo unspecified)
Response line: 1
